# experimental.system: Glutamate NMDA receptor; GRIN1/GRIN2B (Homo sapiens, UniProt Q05586+Q13224)
# Sequence (Q13224 whole entry, other chains not shown): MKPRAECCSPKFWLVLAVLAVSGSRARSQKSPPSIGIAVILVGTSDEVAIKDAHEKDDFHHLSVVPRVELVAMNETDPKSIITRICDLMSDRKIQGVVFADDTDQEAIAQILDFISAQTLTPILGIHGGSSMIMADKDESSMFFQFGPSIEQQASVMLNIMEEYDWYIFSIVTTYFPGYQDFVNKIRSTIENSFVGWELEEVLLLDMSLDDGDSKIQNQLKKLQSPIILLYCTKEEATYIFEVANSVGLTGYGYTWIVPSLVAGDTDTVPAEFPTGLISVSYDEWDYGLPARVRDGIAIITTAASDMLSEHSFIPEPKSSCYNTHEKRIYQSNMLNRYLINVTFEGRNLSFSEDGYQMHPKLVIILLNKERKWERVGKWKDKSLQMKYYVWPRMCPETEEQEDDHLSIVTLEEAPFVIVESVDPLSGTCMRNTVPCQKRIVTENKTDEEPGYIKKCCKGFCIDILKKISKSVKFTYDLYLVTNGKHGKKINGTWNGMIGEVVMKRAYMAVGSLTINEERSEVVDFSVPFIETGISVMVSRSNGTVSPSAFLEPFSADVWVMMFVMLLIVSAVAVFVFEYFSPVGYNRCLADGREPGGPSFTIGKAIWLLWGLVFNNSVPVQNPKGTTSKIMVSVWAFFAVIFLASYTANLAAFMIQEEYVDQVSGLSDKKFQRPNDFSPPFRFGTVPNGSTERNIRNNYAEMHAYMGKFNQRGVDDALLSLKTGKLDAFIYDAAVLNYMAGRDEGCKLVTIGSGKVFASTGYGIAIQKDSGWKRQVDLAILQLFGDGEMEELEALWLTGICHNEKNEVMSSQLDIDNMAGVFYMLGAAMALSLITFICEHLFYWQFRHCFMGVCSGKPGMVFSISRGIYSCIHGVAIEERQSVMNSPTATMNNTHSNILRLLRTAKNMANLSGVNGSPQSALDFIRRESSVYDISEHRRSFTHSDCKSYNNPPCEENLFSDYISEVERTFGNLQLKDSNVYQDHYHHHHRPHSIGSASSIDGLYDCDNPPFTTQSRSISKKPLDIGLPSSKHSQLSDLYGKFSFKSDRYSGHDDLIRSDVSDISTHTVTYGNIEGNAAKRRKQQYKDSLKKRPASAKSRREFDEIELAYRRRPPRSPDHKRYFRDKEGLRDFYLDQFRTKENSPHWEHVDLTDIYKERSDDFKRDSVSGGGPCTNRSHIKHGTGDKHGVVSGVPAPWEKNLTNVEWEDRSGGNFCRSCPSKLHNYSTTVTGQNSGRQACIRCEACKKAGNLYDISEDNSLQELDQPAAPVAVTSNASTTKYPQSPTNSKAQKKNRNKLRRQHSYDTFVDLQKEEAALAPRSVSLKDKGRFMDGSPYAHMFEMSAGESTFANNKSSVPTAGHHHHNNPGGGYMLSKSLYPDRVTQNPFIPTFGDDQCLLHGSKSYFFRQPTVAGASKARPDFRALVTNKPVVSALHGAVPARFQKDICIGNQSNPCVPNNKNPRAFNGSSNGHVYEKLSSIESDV
# test: Antagonist activity at human NR1a/NR2B receptor expressed in mouse fibroblast LMTK cells assessed as inhibition of Glu/Gly induced Ca2+ influx
# Format: functional, cell-based
pIC50: −log10 of the molar value.
parameter: pIC50

> print(dat)
                                test.smiles  observed.measurement
1  CS(=O)(=O)Nc1ccc2nc(CN3CCC(Cc4ccccc4)CC3)[nH]c2c1                  8.85

----------
IC50 listing for selected compounds.
# experimental.system: Glutamate NMDA receptor; GRIN1/GRIN2B (Homo sapiens, UniProt Q05586+Q13224)
# test: Displacement of [3H]-Ro-256981 from recombinant NR1/NR2B receptor
# Format: protein-complex assay
parameter: IC50 (nM)

> print(dat)
                                test.smiles                       experimental.system  parameter  observed.measurement
1  O=C(Nc1ccc2[nH]c(=O)[nH]c2c1)C(=O)N1CCC(Cc2ccccc2)CC1  Glutamate NMDA receptor; GRIN1/GRIN2B (Homo sapiens, UniProt Q05586+Q13224)       IC50                     8
2  O=C(Nc1ccc2[nH]c(=O)oc2c1)C(=O)N1CCC(Cc2ccc(F)cc2)CC1  Glutamate NMDA receptor; GRIN1/GRIN2B (Homo sapiens, UniProt Q05586+Q13224)       IC50                     6
3  O=C(Nc1ccc2[nH]c(O)nc2c1)C(=O)N1CCC(Cc2ccc(F)cc2)CC1  Glutamate NMDA receptor; GRIN1/GRIN2B (Homo sapiens, UniProt Q05586+Q13224)       IC50                     5
4  O=C(Nc1ccc2nc(O)oc2c1)C(=O)N1CCC(Cc2ccccc2)CC1  Glutamate NMDA receptor; GRIN1/GRIN2B (Homo sapiens, UniProt Q05586+Q13224)       IC50                     4

----------
# test: Half life in rat plasma
# Type: ADME, cell-free
parameter: half-life

> print(dat)
                               test.smiles  parameter  observed.measurement
1  Oc1ccc2nc(CN3CCC(Cc4ccccc4)CC3)[nH]c2c1  half-life             > 480 min
